The entries below are paired with their reported Emax.
# Assayed target: human sphingosine-1-phosphate receptor 1 (S1P1) (Homo sapiens, UniProt P21453)
# Sequence (P21453 whole entry): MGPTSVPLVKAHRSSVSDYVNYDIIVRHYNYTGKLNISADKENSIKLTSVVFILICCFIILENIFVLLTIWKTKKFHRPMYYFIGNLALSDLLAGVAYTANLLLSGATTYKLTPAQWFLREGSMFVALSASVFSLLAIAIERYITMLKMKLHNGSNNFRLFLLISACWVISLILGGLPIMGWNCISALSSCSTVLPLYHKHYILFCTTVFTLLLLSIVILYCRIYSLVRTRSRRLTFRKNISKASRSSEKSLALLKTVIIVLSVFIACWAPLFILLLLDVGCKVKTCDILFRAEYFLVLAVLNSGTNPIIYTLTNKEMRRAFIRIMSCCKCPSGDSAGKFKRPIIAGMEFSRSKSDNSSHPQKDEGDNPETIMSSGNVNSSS
# Sequence (P32121 whole entry partner): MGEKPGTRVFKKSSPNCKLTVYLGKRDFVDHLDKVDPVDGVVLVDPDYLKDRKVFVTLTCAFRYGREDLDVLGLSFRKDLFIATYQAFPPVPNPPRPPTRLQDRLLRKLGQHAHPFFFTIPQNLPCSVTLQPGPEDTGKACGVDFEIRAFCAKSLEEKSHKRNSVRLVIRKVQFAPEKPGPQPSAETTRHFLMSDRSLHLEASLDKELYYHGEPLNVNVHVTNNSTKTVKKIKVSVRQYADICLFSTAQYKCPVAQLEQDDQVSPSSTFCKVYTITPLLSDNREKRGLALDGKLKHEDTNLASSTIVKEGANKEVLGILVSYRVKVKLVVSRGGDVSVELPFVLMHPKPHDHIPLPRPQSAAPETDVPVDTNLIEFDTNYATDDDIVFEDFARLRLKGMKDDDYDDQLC
# Measurement description: β-Arrestin2 recruitment assay (PathHunter), S1P1 CHO-K1 cells
# Type: cell-based
# Particulars: CHO-K1; efficacy normalized to maximum efficacy of fingolimod; read-out: hS1P1 B-arrestin2 SPAN
# Protocol: Stable clonal Chinese hamster ovary K1 (CHO-K1) cells co-expressing EA-β-arrestin2 and the human sphingosine-1-phosphate receptor 1 (NM_001400, S1P1) with a C-terminal Prolink™ tag were purchased from DiscoverX corporation (Cat #: 93-0207C2). […] Agonist-promoted β-arrestin2 recruitment to the sphingosine-1-phosphate 1 receptor was determined using the β-arrestin PathHunter® Detection kit (DiscoverX Corporation, Cat #: 93-0001). […]

Known results for compounds:
> print(dat)
                                   compound  observed.value
1  COc1ccccc1-c1noc(-c2cnc3c(c2)nnn3C(C)C)n1           > 75%
2  CC(C)n1nnc2cc(-c3cc(-c4ccccc4F)c[nH]3)ccc21           < 75%
3  COc1cc(NC(C)=O)ccc1-c1noc(-c2ccc3nonc3c2)n1           < 75%

Query: Provide Emax value for the following compound: CC(C)(CO)n1nnc2cc(-c3noc(-c4ccc5nc[nH]c5c4)n3)ccc21
Result: < 75%

Query: Provide Emax value for the following compound: O=C1CNc2ccc(-c3nc(-c4cn[nH]c4)no3)cc2N1
Result: < 75%

Query: Provide Emax value for the following compound: Cc1ccncc1-c1noc(-c2ccc3c(c2)nnn3C2CCC2)n1
Result: > 75%

Query: Provide Emax value for the following compound: COc1ccccc1-c1noc(-c2ccc3c(ccn3C(C)C)c2)n1
Result: > 75%

Query: Provide Emax value for the following compound: N#Cc1cc(-c2nnc(-c3ccc4[nH]c(=O)oc4c3)o2)ccc1NCC(F)F
Result: > 75%

Query: Provide Emax value for the following compound: CCC1(CC)CC(=O)c2cc(-c3nc(-c4ccc(F)nc4)no3)ccc2O1
Result: < 75%

###

The entries below are paired with their reported Emax.
# Assayed target: human sphingosine-1-phosphate receptor 1 (S1P1) (Homo sapiens, UniProt P21453)
# Measurement description: β-Arrestin2 recruitment assay (PathHunter), S1P1 CHO-K1 cells
# Assay type: cell-based
# Particulars: CHO-K1, β-arrestin2 recruitment; efficacy normalized to maximum efficacy of fingolimod; read-out: hS1P1 B-arrestin2 SPAN

Known results for molecules:
> print(dat)
                                   molecule  observed.value
1  COc1ccccc1-c1nsc(-c2ccc3c(c2)nnn3C(C)C)n1 [Compound 213]           > 75%
2  CC(C)n1nnc2cc(-c3noc(-c4cccc(F)c4)n3)ccc21 [Compound 64]           > 75%
3  CCC1(CC)CC(=O)c2cc(-c3nc(-c4cncc(OC)c4)no3)ccc2O1 [Compound 311]           > 75%
4  COc1cccc(F)c1-c1noc(-c2ccc3c(ccn3C(C)C)c2)n1 [Compound 328]           > 75%
5  CCC1(CC)CC(=O)c2cc(-c3nc(-c4cccnc4O)no3)ccc2O1 [Compound 258]           < 75%
6  COc1ccc(-c2noc(-c3ccc4c(c3)nnn4CC(C)(C)O)n2)c(C)c1 [Compound 26]           > 75%

Query: Provide Emax value for the following molecule: Cc1nc(-c2ccccc2)oc1-c1cnc2c(c1)CC(=O)N2 [Compound 360]
Result: < 75%

Query: Provide Emax value for the following molecule: CC(C)n1ccc2cc(-c3nc(-c4cccc5c4OCCC5)no3)ccc21 [Compound 327]
Result: > 75%

Query: Provide Emax value for the following molecule: CC(C)n1nnc2cc(-c3nc4c(o3)Cc3ccccc3-4)ccc21 [Compound 219]
Result: > 75%
